Values from patent US20140271653A1

target.under.test: T1, RSV-F.mmh (Respiratory Syncytial Virus)
T1 construct: also called recombinant RSV-F; soluble monomeric RSV-F
assay.summary: SPR (Biacore), mAb captured via Fc, soluble RSV-F.mmh injected, 25 C
assay.metric: t½ (min)
Quick note: give the figure in min, leave out the unit.

Query: Any idea what t½ was measured for H1H3603P (antibody, V domains shown) VH: QVQLQESGPGLVKPSETLSLTCTVSGGSISGYYWTWIRQPPGKGLEWIGYIYYSGATNYNPSLKSRVTISLDTSKNQFSLKLSSVTAADTAVYYCARDGNYDILTGYYNYHYYGMDVWGQGTTVTVSS VL: DIQMTQSPSSLSASVGDRVTITCRASQDIGNYLAWFQQKPGKAPESLIYAASILQSGVPSKFSGSGSGTDFTLTISSLQPEDFATYYCQQYNTFPWTFGQGTKVEIK ?
Response: 94
